- Target Or System: MLE dsRBD1+2 WT (Drosophila, UniProt P24785 1-264)
- Sequence (P24785 1-264): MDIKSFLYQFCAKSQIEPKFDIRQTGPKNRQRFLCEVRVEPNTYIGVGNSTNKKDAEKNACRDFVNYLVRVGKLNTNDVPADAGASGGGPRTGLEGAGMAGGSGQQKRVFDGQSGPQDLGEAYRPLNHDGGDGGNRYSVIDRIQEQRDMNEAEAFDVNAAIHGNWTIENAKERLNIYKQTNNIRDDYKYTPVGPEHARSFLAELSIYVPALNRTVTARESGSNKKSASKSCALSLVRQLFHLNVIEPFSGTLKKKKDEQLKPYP
- Method Summary: fluorescence polarization; FP: 80 nM 3'-FAM RNA stock mixed 1:1 with protein, buffer D (composition not in material), 15 min, 20 C; EMSA: 1200 nM RNA stock mixed 1:1 with protein, buffer
- Experimental Setup: protein: recombinant; tags: SUMO tag (N-terminal, with Ni-NTA purification) removed by ULP1; label: 3'-FAM; hairpin, 13 nt loop (C135-C147)
Parameter: pKd
Notebook: values listed as pKd are -log10 of the concentration (mol/L).

Request the reported pKd associated with R2H1 55mer (FAM) (structured_RNA) RNA: GCUUUAGAGAUCGUUUCGAAUCACAUUGAUAAUCGUUCGAAACGUUCUCCGAAGC 6.70
